METHOD: Pharmacokinetics of compound (Ib) in rat, intravenous, plasma by HPLC
Format: in vivo, rat (Fischer)
TEST_CONTEXT: plasma, iv; rat (Fischer), i.v. 14.29 mg/kg, average of four rats, 5 hr
PROPERTY: concentration at 5 h

{"COMPOUND": "Nc1nc(/C(=N/OCc2ccco2)C(=O)NC2C(=O)N3C(C(=O)[O-])=C(C[n+]4ccccc4)CSC23)cs1 (stereo not shown)", "PROPERTY": "concentration at 5 h", "ASSAY_VALUE": "1600 ng/mL"}

---

METHOD: Pharmacokinetics of compound (Ib) in rat, intravenous, plasma by HPLC
Format: in vivo, rat (Fischer)
TEST_CONTEXT: plasma, iv; rat (Fischer), i.v. 14.29 mg/kg, average of four rats, 2 hr

{"MOLECULE": "Nc1nc(/C(=N/OCc2ccco2)C(=O)NC2C(=O)N3C(C(=O)[O-])=C(C[n+]4ccccc4)CSC23)cs1 (stereo not shown)", "RESULT_UNITS": "ng/mL", "concentration at 2 h": 6100}

---

METHOD: Pharmacokinetics of compound (Ib) in rat, intravenous, plasma by HPLC
Type: in vivo, rat (Fischer)
TEST_CONTEXT: plasma, iv; rat (Fischer), i.v. 14.29 mg/kg, average of four rats, 1 min
Description: The pharmacokinetics of the invented compound (Ib) was studied in rat (Fischer, 6~10 weeks). […] The concentrations in plasma were measured by HPLC analysis of blood samples, and the results of average concentrations in plasma were listed in Table 2.

{"COMPOUND": "Nc1nc(/C(=N/OCc2ccco2)C(=O)NC2C(=O)N3C(C(=O)[O-])=C(C[n+]4ccccc4)CSC23)cs1 (stereo not shown)", "concentration at 1 min (µg/mL)": 112}

---

System: Pseudomonas aeruginosa ATCC 27853
METHOD: In-vitro antibacterial activity (MIC), two-fold dilution method
Assay type: cell-based
TEST_CONTEXT: ATCC27853; Pseudomonas aeruginosa ATCC 27853; Muller-Hinton agar, 37° C., 20 hours; read-out: minimal inhibitory concentration (MIC)
PROPERTY: MIC (µg/mL)

{"COMPOUND": "Cn1nnnc1SCC1=C(C(=O)O)N2C(=O)C(NC(=O)/C(=N\\OCc3ccco3)c3csc(N)n3)C2SC1 (stereo not shown)", "RESULT_UNITS": "µg/mL", "ASSAY_VALUE": 16}
{"COMPOUND": "CC(=O)OCC1=C(C(=O)O)N2C(=O)C(NC(=O)/C(=N\\OCc3ccco3)c3csc(N)n3)C2SC1 (stereo not shown)", "RESULT_UNITS": "µg/mL", "ASSAY_VALUE": 16}
{"COMPOUND": "CO[C@@]1(NC(=O)C(C(=O)O)c2ccc(O)cc2)C(=O)N2C(C(=O)O)=C(CSc3nnnn3C)CO[C@@H]21 (stereo partly shown) [Moxalactam, reference compound]", "RESULT_UNITS": "µg/mL", "ASSAY_VALUE": 16}
{"COMPOUND": "Nc1nc(/C(=N/OCc2ccco2)C(=O)NC2C(=O)N3C(C(=O)[O-])=C(C[n+]4ccccc4)CSC23)cs1 (stereo not shown)", "RESULT_UNITS": "µg/mL", "ASSAY_VALUE": 8}

---

METHOD: Pharmacokinetics of compound (Ib) in rat, intravenous, plasma by HPLC
Assay type: in vivo, rat (Fischer)
TEST_CONTEXT: plasma, iv; rat (Fischer), i.v. 14.29 mg/kg, average of four rats, 3 hr

{"MOLECULE": "Nc1nc(/C(=N/OCc2ccco2)C(=O)NC2C(=O)N3C(C(=O)[O-])=C(C[n+]4ccccc4)CSC23)cs1 (stereo not shown) [Compound (Ib)]", "concentration at 3 h, ng/mL": 4300}
